experimental.target: human PLK1 (NLuc-PLK1) (Homo sapiens, UniProt P53350)
Construct: plasmid DNAs encoding N- and C-terminal fusions of full-length PLK1 with NLuc; host or cells: HEK293
Sequence (P53350 whole entry, the tested form may be a part): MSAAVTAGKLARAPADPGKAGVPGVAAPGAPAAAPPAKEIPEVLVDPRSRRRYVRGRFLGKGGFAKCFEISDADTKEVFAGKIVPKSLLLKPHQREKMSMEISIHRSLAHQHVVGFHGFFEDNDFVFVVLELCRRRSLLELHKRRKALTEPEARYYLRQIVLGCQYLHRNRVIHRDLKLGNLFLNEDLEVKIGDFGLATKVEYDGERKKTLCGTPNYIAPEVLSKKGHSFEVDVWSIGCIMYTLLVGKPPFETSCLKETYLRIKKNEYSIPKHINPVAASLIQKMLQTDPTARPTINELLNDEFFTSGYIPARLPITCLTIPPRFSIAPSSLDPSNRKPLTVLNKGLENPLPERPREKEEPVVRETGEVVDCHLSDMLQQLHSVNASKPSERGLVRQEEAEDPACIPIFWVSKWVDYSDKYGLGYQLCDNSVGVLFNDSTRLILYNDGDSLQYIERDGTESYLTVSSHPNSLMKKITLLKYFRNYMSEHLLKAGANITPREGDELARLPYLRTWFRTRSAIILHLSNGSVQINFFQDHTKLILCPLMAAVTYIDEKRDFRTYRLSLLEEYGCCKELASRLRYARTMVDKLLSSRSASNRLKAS
assay.remarks: PLK1 NanoBRET target engagement assay (NLuc-PLK1, N-terminal fusion) in live HEK293 cells
Format: cell-based
settings: Probe 11 Conc. 0.8 μM, NLuc-PLK1, ADH format; read-out: apparent IC50
Procedure: HEK293 cells (ATCC) were cultured in DMEM (Gibco) + 10% FBS (Seradigm) with incubation in a humidified 37 °C/5% CO2 incubator. […] To test BRET probes 10 and 11 against PLK1, HEK293 adherent cells were incubated with either NLuc fused to the N-terminus of PLK1 (NLuc-PLK1) or the C-terminus of PLK1 (PLK1-NLuc) using 1 µM of the BRET probe, and mBRET units were measured. […]
endpoint.label: pIC50
Schema: pIC50 number; meaning minus log10 of the concentration expressed in molar units.

Lookup: Could you please provide reported pIC50 for CC[C@@H]1C(=O)N(C)c2cnc(Nc3ccc(C(=O)NC4CCNCC4)cc3OC)nc2N1C(C)C ? Thanks!
Found: 6.54
